- System: Plasmodium falciparum
- test name: Antimalarial activity against blood stage Plasmodium falciparum TM91C235 assessed as [3H]-hypoxanthine uptake after 24 hrs by scintillation counting
- Format: functional, organism-based
result type: IC50

Check the records and state IC50 for CC(C)(C)N1CC(=O)N=C1NC(=N)Nc1ccc(Cl)c(Cl)c1
> 5 µg/mL

* * *

- test name: Metabolic stability in mouse assessed as half life at 160 mg/kg, po by LC-MS/MS analysis
- Format: ADME, organism-based
- Design: dose 160 mg/kg, route oral
result type: half-life

line notation | assay value
CC(C)n1cc(OC(=O)C(C)(C)C)nc1N/C(=N\C(=O)C(C)(C)C)Nc1ccc(Cl)c(Cl)c1 | > 1 h
CN1CC(=O)N=C1N/C(=N\C(=O)OC(C)(C)C)Nc1ccc(Cl)c(Cl)c1 | < 0.167 h
CC(C)(C)N1CC(=O)N=C1NC(=N)Nc1ccc(Cl)c(Cl)c1 | > 1 h
CC/N=C(\NC1=NC(=O)CN1c1ccc(Cl)c(Cl)c1)Nc1ccc(Cl)c(Cl)c1 | > 1 h

Check the records and state half-life for CC(C)(C)N/C(=N/C1=NC(=O)CN1c1ccc(Cl)c(Cl)c1)Nc1ccc(Cl)c(Cl)c1
> 1 h

* * *

IC50 listing for selected molecules.
- Tested on: Plasmodium falciparum
- test name: Antimalarial activity against blood stage Plasmodium falciparum TM91C235 assessed as [3H]-hypoxanthine uptake after 24 hrs by scintillation counting
- Type: functional, organism-based
All answers are understood in µg/mL, so give the number only.

Some solved cases for reference:
line notation | units of measure | IC50
CN1CC(=O)N=C1N/C(=N\C(=O)OC(C)(C)C)Nc1ccc(Cl)c(Cl)c1 | µg/mL | 2.54
CC(C)N1CC(=O)N=C1NC(=N)Nc1ccc(Cl)c(Cl)c1 | µg/mL | 3.31

Please find the next molecule below.
Check the records and state IC50 for CN1CC(=O)N=C1NC(=N)Nc1ccc(Cl)c(Cl)c1
3.31

* * *

- test name: Metabolic stability in human assessed as half life at 320 mg/kg, po by LC-MS/MS analysis
- Assay type: ADME, organism-based
- Parameters: dose 320 mg/kg, route oral
result type: half-life

Some solved cases for reference:
line notation | half-life
CC(C)/N=C(\NC1=NC(=O)CN1C(C)C)Nc1ccc(Cl)c(Cl)c1 | 0.883 h
CC(C)/N=C(\NC1=NC(=O)CN1C)Nc1ccc(Cl)c(Cl)c1 | > 1 h
CC(C)N/C(=N/C(=O)OC(C)(C)C)NC1=NC(=O)CN1c1cccc(Cl)c1Cl | > 1 h
CCOC(=O)/N=C(/NC1=NC(=O)CN1c1ccc(Cl)c(Cl)c1)NC(C)C | > 1 h
CC/N=C(\NC1=NC(=O)CN1c1ccc(Cl)c(Cl)c1)Nc1ccc(Cl)c(Cl)c1 | > 1 h

Please find the next compound below.
Check the records and state half-life for CC(C)(C)N/C(=N/C1=NC(=O)CN1c1ccc(Cl)c(Cl)c1)Nc1ccc(Cl)c(Cl)c1
> 1 h

* * *

- Test system: Plasmodium falciparum
- test name: Antimalarial activity against blood stage Plasmodium falciparum TM91C235 assessed as [3H]-hypoxanthine uptake after 24 hrs by scintillation counting
- Assay type: functional, organism-based
IC50 listing for selected compounds.

Check the records and state IC50 for CC(C)N1CC(=O)N=C1N/C(=N/c1ccc(Cl)c(Cl)c1)N1CCCC1
> 5 µg/mL

Check the records and state IC50 for CC(C)(C)OC(=O)/N=C(\NC1=NC(=O)CN1C(C)(C)C)Nc1ccc(Cl)c(Cl)c1
> 5 µg/mL

Check the records and state IC50 for CC(C)n1cc(OC(=O)C(C)(C)C)nc1N/C(=N\C(=O)C(C)(C)C)Nc1ccc(Cl)c(Cl)c1
> 12 µg/mL

Check the records and state IC50 for CC(C)/N=C(\NC1=NC(=O)CN1C(C)C)Nc1ccc(Cl)c(Cl)c1
> 5 µg/mL
